B1: Zinc finger MYM-type protein 2, residues 463 to 506; numbered along this chain, Q9UBW7 (parent)
chain: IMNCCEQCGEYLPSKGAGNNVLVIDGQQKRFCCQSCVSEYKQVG

Variants of: B1
Experiment: abundance fitness (aPCA) (normalised: wild type 0, dead -1); higher = more abundant; growth selection in yeast, the domain comes from the species named
Details: Homo sapiens
Class 1: abundance fitness at least -0.06. Class -1: abundance fitness below -0.06.

Incoming: State whether the measured abundance fitness reaches -0.06, counting equality as reaching it, for `I1A`
Outgoing: 1

Incoming: Is it the case that `G26Y` has abundance fitness reaching or exceeding -0.06?
Outgoing: 1

Incoming: Determine whether measured abundance fitness meets or exceeds -0.06 for `I24F`
Outgoing: 1

Incoming: Quick check, abundance fitness >= -0.06? `D25F`
Outgoing: -1

Incoming: Exam item: decide whether the reported abundance fitness for `V21R` is at least -0.06.
Outgoing: -1

Incoming: Does abundance fitness meet or surpass -0.06 for `L22Q` ?
Outgoing: 1

Incoming: Exam item: decide whether the reported abundance fitness for `R30V` is at least -0.06.
Outgoing: 1

Incoming: Can `I24G` be said to have abundance fitness at or above -0.06?
Outgoing: -1

Incoming: Identify whether the reported abundance fitness of the following variant is -0.06 or greater: `D25Q`
Outgoing: -1

Origin of the recorded values: the Human Domainome abundance scans (Beltran et al. 2025)
